Origin of measurements: patent US20250313574A1

- target or test system: Recombinant Human Siglec-3/CD33 protein (His-CD33) (Homo sapiens (Human), UniProt P20138)
- procedure details: Differential scanning fluorimetry (DSF) thermal shift assay
- Type: binding
- measurement context: thermal melt shift of 0.5 μM CD33 protein with 50 μM compound
// NB: equality with 10 counts as 0 (no); only DSF (dTmD) strictly below is 1 (yes)

Some entries whose results are on file:
CC(=O)N[C@H]1[C@H]([C@H](O)[C@H](O)CNC(=O)c2cnc3[nH]nc(C)c3c2)O[C@@](CCN2CCOC[C@@]23CCN(C(=O)OC(C)(C)C)C3)(C(=O)O)C[C@@H]1O; 0 (no)
CC(=O)N[C@H]1[C@H]([C@H](O)[C@H](O)CNC(=O)c2cc(C)c(O)c(C)c2)O[C@@](CCN2CCNC[C@@]23CCN(C(=O)OC(C)(C)C)C3)(C(=O)O)C[C@@H]1O; 0 (no)
CC(=O)N[C@H]1[C@H]([C@H](O)[C@H](O)CNC(=O)c2cc(C)c(O)c(C)c2)O[C@@](CCN2CCOC[C@@]23CCN(C(=O)N2CCC(F)(F)CC2)C3)(C(=O)O)C[C@@H]1O; 1 (yes)

## Input Hello, I'm reviewing records and need to know if DSF (dTmD) of `CC(=O)N[C@H]1[C@H]([C@H](O)[C@H](O)CNC(=O)c2ccc(=O)n(C)c2)O[C@@](CCN2CCOC[C@@]23CCN(C(=O)OC(C)(C)C)C3)(C(=O)O)C[C@@H]1O` is below 10. Could you check?
## Output 1 (yes)

## Input Now the same for `C/C=C/C=C/C(=O)NC[C@@H](O)[C@@H](O)[C@@H]1O[C@@](CCN2CCOC[C@@]23CCN(C(=O)OC(C)(C)C)C3)(C(=O)O)C[C@H](O)[C@H]1NC(C)=O`
## Output 1 (yes)

## Input Now the same for `CC(=O)N[C@H]1[C@H]([C@H](O)[C@H](O)CNC(=O)c2cc(C)c(O)c(C)c2)O[C@@](CCN2CCN(C)C[C@@]23CCN(C(=O)OC(C)(C)C)C3)(C(=O)O)C[C@@H]1O`
## Output 0 (no)

## Input Now the same for `CC(=O)N[C@H]1[C@H]([C@H](O)[C@H](O)CNC(=O)c2cccc(Cl)c2)O[C@@](CCN2CCOC[C@@]23CCN(C(=O)OC(C)(C)C)C3)(C(=O)O)C[C@@H]1O`
## Output 0 (no)

## Input Now the same for `CC(=O)N[C@H]1[C@H]([C@H](O)[C@H](O)CNC(=O)c2cc(Br)[nH]n2)O[C@@](CCN2CCOC[C@@]23CCN(C(=O)OC(C)(C)C)C3)(C(=O)O)C[C@@H]1O`
## Output 0 (no)

## Input Now the same for `CC(=O)N[C@H]1[C@H]([C@H](O)[C@H](O)CNC(=O)c2cc(Cl)[nH]n2)O[C@@](CCN2CCOC[C@@]23CCN(C(=O)OC(C)(C)C)C3)(C(=O)O)C[C@@H]1O`
## Output 0 (no)

---

Below, each of the compounds is paired with its reported pEC50 value.
- target or test system: Recombinant human CD33 protein (Homo sapiens (Human), UniProt P20138)
- Sequence (P20138 18-259): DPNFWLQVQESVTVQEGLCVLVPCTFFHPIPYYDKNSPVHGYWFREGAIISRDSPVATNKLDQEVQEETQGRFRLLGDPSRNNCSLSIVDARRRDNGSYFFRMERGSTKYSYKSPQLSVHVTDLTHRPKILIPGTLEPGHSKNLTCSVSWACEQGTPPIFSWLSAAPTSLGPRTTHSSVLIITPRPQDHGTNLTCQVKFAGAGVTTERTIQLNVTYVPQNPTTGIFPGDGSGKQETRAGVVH
- procedure details: CD33 competitive binding assay for HTS drug screen (fluorescent multivalent sialic acid probe)
Quick note: pEC50 means taking -log10 of the concentration in moles per liter.

Cc1cc(C(=O)NC[C@@H](O)[C@@H](O)[C@@H]2O[C@@](OCCOCCNC(=O)OCc3ccccc3)(C(=O)O)C[C@H](O)[C@H]2NC(=O)Cn2cc(C3CCCCC3)nn2)cc(C)c1O; 4.96

## Input So what does the record say about pEC50 for Cc1cc(C(=O)NCC(O)C[C@@H]2O[C@@](C/C=C/C3CCN(C(=O)OC(C)(C)C)C3)(C(=O)O)CCC2C)cc(C)c1O (single isomer, unassigned) [A-209] ?
## Output 4.35

## Input Now the same for CC(=O)N[C@H]1[C@H]([C@H](O)[C@H](O)CNC(=O)c2cc(C)c(O)c(C)c2)O[C@@](CCCC2(C)CCN(C(=O)OC(C)(C)C)C2)(C(=O)O)C[C@@H]1O (stereo partly shown)
## Output 6.59

## Input Now the same for CC(=O)N[C@H]1[C@H]([C@H](O)[C@H](O)CNC(=O)c2cc(C)c(O)c(C)c2)O[C@@](CN2CCCC3(CCN(C(=O)OC(C)(C)C)C3)C2)(C(=O)O)C[C@@H]1O (stereo partly shown)
## Output 7.05

## Input Now the same for `Cc1cc2cc(C)c1OCCCCNC(=O)CCCCCC[C@]1(C(=O)O)C[C@H](O)[C@@H](NC(=O)Cn3cc(C4CCCCC4)nn3)[C@@H](O1)[C@H](O)[C@H](O)CNC2=O`
## Output 4.88

## Input Now the same for `CC(=O)N[C@H]1[C@H]([C@H](O)[C@H](O)CNC(=O)c2cc(C)c(O)c(C)c2)O[C@@](CCN2CCOC[C@@]23CCN(C(=O)C2CCCCC2)C3)(C(=O)O)C[C@@H]1O`
## Output 7.20

## Input Now the same for `COCc1cc2cc(C(=O)NCc3cccc(/C=C/C[C@]4(C(=O)O)C[C@H](O)[C@@H](NC(C)=O)[C@H]([C@H](O)[C@H](O)CNC(=O)c5cc(C)c(O)c(C)c5)O4)c3)ccc2[nH]1`
## Output 7.13

## Input Now the same for `CC(=O)N[C@H]1[C@H]([C@H](O)[C@H](O)CNC(=O)c2cc(C)c(=O)n(C)c2)O[C@@](CCN2CCOC[C@@]23CCN(C(=O)OC(C)(C)C)C3)(C(=O)O)C[C@@H]1O`
## Output 6.79

## Input Now the same for CC(=O)N[C@H]1[C@H]([C@H](O)[C@H](O)CNC(=O)c2cc(C)c(O)c(C)c2)O[C@@](CC2OC(C)(C)O[C@H]2c2cccc(N3CCCCC3=O)c2)(C(=O)O)C[C@@H]1O (stereo partly shown)
## Output 5.31

---

- target or test system: Recombinant human CD33 protein (Homo sapiens (Human), UniProt P20138)
- procedure details: CD33 competitive binding assay for HTS drug screen (fluorescent multivalent sialic acid probe)
pEC50: −log10 of the molar value.
Label true (1) when pEC50 is at or above 6; otherwise label false (0).

CC(=O)N[C@H]1[C@H]([C@H](O)[C@H](O)CNC(=O)c2cc(C)c(O)c(C)c2)O[C@@](CCN2CCOC[C@@]23CCN(C(=O)C2(C)CCCCC2)C3)(C(=O)O)C[C@@H]1O; true (1)

## Input Check the entry `CC(=O)N[C@H]1[C@H]([C@H](O)[C@H](O)CNC(=O)c2cc(C)c(O)c(C)c2)O[C@@](CCN2CCOC[C@@]23CCN(C(=O)NC2(c4ccc(F)cc4)CCCC2)C3)(C(=O)O)C[C@@H]1O` : does pEC50 equal or exceed 6?
## Output true (1)

---

- target or test system: Recombinant human CD33 protein (Homo sapiens (Human), UniProt P20138)
- procedure details: CD33 competitive binding assay for HTS drug screen (fluorescent multivalent sialic acid probe)
readout label: pEC50
Quick note: pEC50 means taking -log10 of the concentration in moles per liter.

// solved cases for pEC50 follow
CC(=O)N[C@H]1[C@H]([C@H](O)[C@H](O)CNC(=O)c2cc(C)c(O)c(C)c2)O[C@@](C/C=C/c2cccc(CNC(=O)C3CCC(Nc4ccc(C(N)=O)cn4)CC3)c2)(C(=O)O)C[C@@H]1O (stereo partly drawn); 5.03
CC(=O)N[C@H]1[C@H]([C@H](O)[C@H](O)CNC(=O)c2cc(F)c(F)c(F)c2)O[C@@](CCN2CCOC[C@@]23CCN(C(=O)OC(C)(C)C)C3)(C(=O)O)C[C@@H]1O; 5.44
CC(=O)N[C@H]1[C@H]([C@H](O)[C@H](O)CNC(=O)c2cc(C)c(O)c(C)c2)O[C@@](CCN2CCOC[C@@]23CCN(c2cc(C(F)(F)F)ccn2)C3)(C(=O)O)C[C@@H]1O; 7.02
CC(=O)N[C@H]1[C@H]([C@H](O)[C@H](O)CNC(=O)c2cc(C)c(O)c(C)c2)O[C@@](CCN2CCOC[C@@]23CCN(c2cc(C)ccn2)C3)(C(=O)O)C[C@@H]1O; 7.28
Cc1cc(C(=O)NC[C@@H](O)[C@@H](O)[C@@H]2O[C@@](OC3CCCCC3NC(=O)CNC(=O)OCc3ccccc3)(C(=O)O)C[C@H](O)[C@H]2NC(=O)Cn2cc(C3CCCCC3)nn2)cc(C)c1O (stereo partly drawn); 5.44

Then there is this compound:
## Input So what does the record say about pEC50 for CC(=O)N[C@H]1[C@H]([C@H](O)[C@H](O)CNC(=O)c2cc(C)c(O)c(C)c2)O[C@@](C/C=C/C2CCN(C(=O)OC(C)(C)C)C2)(C(=O)O)C[C@@H]1O (stereo partly drawn) ?
## Output 7.59
